# System: mice
# Test Method Notes: rotating rod test in mice (sedative/muscle relaxant properties), i.v.
# Format: in vivo, mouse
# Experimental Conditions: Mus musculus, iv, 15 s, minimum time 10 sec, 15 sec after administration
Can you tell me ED50 for the items I'm about to list?
Give bare numbers, in mg/kg.

// known answers, use as guide
[
  {
    "Compound": "CC(=O)OCc1cn2c(n1)CN=C(c1ccccc1F)c1cc(Cl)sc1-2",
    "Unit Abbrev": "mg/kg",
    "Measured Result": 0.6
  },
  {
    "Compound": "OCc1cn2c(n1)CN=C(c1ccccn1)c1cc(Br)ccc1-2",
    "Unit Abbrev": "mg/kg",
    "Measured Result": 1.5
  },
  {
    "Compound": "OCc1cn2c(n1)CN=C(c1ccccc1F)c1cc(Cl)ccc1-2",
    "Unit Abbrev": "mg/kg",
    "Measured Result": 0.1
  },
  {
    "Compound": "C=CCNCc1c(CO)nc2n1-c1ccc(Cl)cc1C(c1ccccc1F)=NC2",
    "Unit Abbrev": "mg/kg",
    "Measured Result": 2.5
  },
  {
    "Compound": "O=[N+]([O-])c1ccc2c(c1)C(c1ccccc1F)=NCc1nc(CO)cn1-2",
    "Unit Abbrev": "mg/kg",
    "Measured Result": 0.2
  }
]

Below are 2 compounds. Give each one its ED50.
1. OCc1cn2c(n1)CN=C(c1ccccc1F)c1cc(I)ccc1-2
2. OCc1cn2c(n1)CN=C(c1ccccc1)c1cc(C(F)(F)F)ccc1-2

0.1
1
